Below is a list of entries, each paired with its recorded mass density value.
Conditions: 328.15 K; 101 kPa; Liquid
Return type: number; implicit unit kg/m3.

compound=CO result=757.8
compound="CCOS(=O)(=O)[O-].CCn1cc[n+](C)c1 [1-ethyl-3-methylimidazolium ethyl sulfate]" result=1217.5
compound=CCCO result=774.8

// below: mass density requested for another compound
## Task Which mass density reading was recorded for the compound CC(C)O ?
## Result 753.9

----------
Below is a list of entries, each paired with its recorded speed of sound value.
Conditions: 298.15 K; 101 kPa; Liquid
Return type: number; implicit unit m/s.

Completed entries (count: 3):
compound="CCOS(=O)(=O)[O-].CCn1cc[n+](C)c1 [1-ethyl-3-methylimidazolium ethyl sulfate]" parameter="speed of sound" unit_symbol=m/s result=1679
compound=CCCO parameter="speed of sound" unit_symbol=m/s result=1207
compound=CC(C)O parameter="speed of sound" unit_symbol=m/s result=1138

// below: speed of sound requested for another compound
## Task Which speed of sound reading was recorded for the compound CO ?
## Result 1103

----------
Settings: 298.15 K; 101 kPa; Liquid
PARAMETER: viscosity (mPa·s)
Return type: number; implicit unit mPa·s.

molecule="CO [methanol]" result=0.546
molecule="CCOS(=O)(=O)[O-].CCn1cc[n+](C)c1 [1-ethyl-3-methylimidazolium ethyl sulfate]" result=97.58
molecule="CC(C)O [propan-2-ol]" result=2.082

// below: viscosity requested for another molecule
## Task Which viscosity reading was recorded for the molecule CCCO [propan-1-ol] ?
## Result 2.017

----------
Assay: refractive index (Na D-line) (dimensionless)
Conditions: 298.15 K; 101.33 kPa; Liquid
Below is a list of entries, each paired with its recorded refractive index value.
Give the value as a plain number.

Completed entries (count: 3):
molecule=CCCO result=1.3831
molecule=CC(C)O result=1.37495
molecule=CO result=1.32687

// below: refractive index requested for another molecule
## Task Which refractive index reading was recorded for the molecule CCOS(=O)(=O)[O-].CCn1cc[n+](C)c1 [1-ethyl-3-methylimidazolium ethyl sulfate] ?
## Result 1.4794

----------
Conditions: 328.15 K; 101 kPa; Liquid
Below is a list of entries, each paired with its recorded speed of sound value.
Return type: number; implicit unit m/s.

molecule="CCCO [propan-1-ol]" result=1105
molecule="CO [methanol]" result=1006

## Task Which speed of sound reading was recorded for the molecule CCOS(=O)(=O)[O-].CCn1cc[n+](C)c1 [1-ethyl-3-methylimidazolium ethyl sulfate] ?
## Result 1605

## Task Which speed of sound reading was recorded for the molecule CC(C)O [propan-2-ol] ?
## Result 1031

----------
Below is a list of entries, each paired with its recorded mass density value.
Settings: 298.15 K; 101 kPa; Liquid
Return type: number; implicit unit kg/m3.

Completed entries (count: 3):
compound=CC(C)O result=780.7
compound="CCOS(=O)(=O)[O-].CCn1cc[n+](C)c1 [1-ethyl-3-methylimidazolium ethyl sulfate]" result=1237.6
compound=CO result=786.4

// below: mass density requested for another compound
## Task Which mass density reading was recorded for the compound CCCO ?
## Result 799.6

----------
Conditions: 313.15 K; 101 kPa; Liquid
PARAMETER: mass density (kg/m3)
Return type: number; implicit unit kg/m3.

## Task Which mass density reading was recorded for the compound CCCO [propan-1-ol] ?
## Result 787.4

## Task Which mass density reading was recorded for the compound CO [methanol] ?
## Result 772.3

## Task Which mass density reading was recorded for the compound CCOS(=O)(=O)[O-].CCn1cc[n+](C)c1 [1-ethyl-3-methylimidazolium ethyl sulfate] ?
## Result 1227.5

## Task Which mass density reading was recorded for the compound CC(C)O [propan-2-ol] ?
## Result 767.8

----------
Below is a list of entries, each paired with its recorded viscosity value.
Details: 328.15 K; 101 kPa; Liquid
Return type: number; implicit unit mPa·s.

Completed entries (count: 3):
molecule=CC(C)O parameter=viscosity result=0.919
molecule="CCOS(=O)(=O)[O-].CCn1cc[n+](C)c1 [1-ethyl-3-methylimidazolium ethyl sulfate]" parameter=viscosity result=29.18
molecule=CO parameter=viscosity result=0.369

## Task Which viscosity reading was recorded for the molecule CCCO ?
## Result 1.041

----------
Settings: 313.15 K; 101 kPa; Liquid
± gives the expanded uncertainty stated by the source.
Below is a list of entries, each paired with its recorded viscosity value.

compound=CC(C)O result="1.354 ± 0.036 mPa·s"
compound="CCOS(=O)(=O)[O-].CCn1cc[n+](C)c1 [1-ethyl-3-methylimidazolium ethyl sulfate]" result="50.01 ± 1.3 mPa·s"
compound=CCCO result="1.43 ± 0.037 mPa·s"

// below: viscosity requested for another compound
## Task Which viscosity reading was recorded for the compound CO ?
## Result 0.446 ± 0.023 mPa·s
